# Experiment notes: photoluminescence quantum yield (fraction); solvent given as SMILES
# Test conditions: in ClCCl
Observable: photoluminescence quantum yield
Answer field: number only, no words.

Output measured photoluminescence quantum yield for this item: `COc1cc(OC)cc(C2=C3C(C)=C(I)C(C)=[N+]3[B-](F)(F)n3c(/C=C/c4c[nH]c5ccccc45)c(I)c(C)c32)c1`
0.19

Output measured photoluminescence quantum yield for this item: `COC(=O)c1nc2c(N(C)C)nc(N(C)C)nc2n1Cc1ccccc1`
0.9

Output measured photoluminescence quantum yield for this item: `Cc1ccc(N(c2ccc(C)cc2)c2ccc(Oc3nnc(Cl)nn3)cc2)cc1`
0.0006

Output measured photoluminescence quantum yield for this item: Cc1ccc(-c2c3nc(c(-c4ccc(C)cc4)c4ccc([nH]4)c(-c4ccc(OC(=O)C(C)c5ccc(-c6ccccc6)c(F)c5)cc4)c4nc(c(-c5ccc(C)cc5)c5ccc2[nH]5)C=C4)C=C3)cc1 (stereo unspecified)
0.131

Output measured photoluminescence quantum yield for this item: `OB1c2ccccc2Nc2ccccc21`
0.03

Output measured photoluminescence quantum yield for this item: `F[B-]12Oc3ccccc3-c3c4[n+]5c(c([n+]31)-c1ccccc1O2)-c1ccccc1O[B-]5(F)Oc1ccccc1-4`
0.29

Output measured photoluminescence quantum yield for this item: `FC(F)(F)c1ccc(-n2c(-c3ccc(N(c4ccc(-c5ccc(N(c6ccc(-c7nc8c9ccccc9c9ccccc9c8n7-c7ccc(C(F)(F)F)cc7)cc6)c6ccc(-c7nc8c9ccccc9c9ccccc9c8n7-c7ccc(C(F)(F)F)cc7)cc6)cc5)cc4)c4ccc(-c5nc6c7ccccc7c7ccccc7c6n5-c5ccc(C(F)(F)F)cc5)cc4)cc3)nc3c4ccccc4c4ccccc4c32)cc1`
0.383

Output measured photoluminescence quantum yield for this item: `O=c1oc2ccccc2c2c1c(=O)oc1cc(O)cc(O)c12`
0.1

Output measured photoluminescence quantum yield for this item: `CCN1c2ccc(/C=N/Nc3ccccn3)cc2Sc2cc(-c3ccc(OC)cc3)ccc21`
0.38

Output measured photoluminescence quantum yield for this item: `N#CC(C#N)=Cc1ccc(-c2ccc(O)c(-c3nc4ccccc4s3)c2)s1`
0.016

Output measured photoluminescence quantum yield for this item: `Cc1ccc2nc3cc4c(cc3c(-c3ccccc3)c2c1)[Si](C)(C)O[Si]4(C)C`
0.27

Output measured photoluminescence quantum yield for this item: `COC(=O)c1ccc2ccc3cccc4ccc1c2c34`
0.56

Output measured photoluminescence quantum yield for this item: `CC(=O)O[B-]1(OC(C)=O)OC(/C=C/c2ccc(C)cc2)=CC(/C=C/c2ccc(C)cc2)=[O+]1`
0.56

Output measured photoluminescence quantum yield for this item: `c1ccc(N(c2ccccc2)c2ccc(-c3ccc4c(c3)C3(c5ccccc5Sc5ccccc53)c3cc(-c5ccc(N(c6ccccc6)c6ccccc6)cc5)ccc3-4)cc2)cc1`
0.81

Output measured photoluminescence quantum yield for this item: `CC1(C)[C@@H]2CC[C@]1(C)c1nc3cc(-c4cccs4)ccc3nc12`
0.05

Output measured photoluminescence quantum yield for this item: C[SiH]1c2ccccc2-c2cc3c(cc21)-c1ccccc1[SiH]3C (stereo unspecified)
0.5

Output measured photoluminescence quantum yield for this item: `COc1ccc(C2=CC(c3cc(OC)cc(OC)c3)=[O+][B-](F)(F)O2)cc1`
0.08

Output measured photoluminescence quantum yield for this item: `CN(C)c1ccc(C2=Nc3sc4c(F)c(F)c(F)c(F)c4[n+]3[B-](F)(F)O2)cc1`
0.66

Output measured photoluminescence quantum yield for this item: `COc1cccc(OC)c1-c1c2ccc(=[N+]3CCN(C(=O)OC(C)(C)C)CC3)cc-2oc2cc(N3CCN(C(=O)OC(C)(C)C)CC3)ccc12`
0.49

Output measured photoluminescence quantum yield for this item: `CN(C)c1ccc(/C=C/c2cnc(-c3ccncc3)o2)cc1`
0.65

Output measured photoluminescence quantum yield for this item: `COC(=O)c1nc2c(OCc3ccccc3)nc(N)nc2n1Cc1ccccc1`
0.95

Output measured photoluminescence quantum yield for this item: `COc1ccc2cc(C#CC3=C4CCc5ccccc5C4=[O+][B-](F)(F)O3)ccc2c1`
0.16

Output measured photoluminescence quantum yield for this item: `ClP1(Cl)=N[P@](Cl)(Oc2ccc3ccc4cccc5ccc2c3c45)=N[P@@](Cl)(Oc2ccc3ccc4cccc5ccc2c3c45)=N1`
0.76

Output measured photoluminescence quantum yield for this item: `O=C(c1ccc(N(c2ccccc2)c2ccccc2)cc1)[C@H]1[C@H](c2cccs2)C[C@](O)(c2ccccn2)C[C@]1(O)c1ccccn1`
0.22

Output measured photoluminescence quantum yield for this item: `CCCCCc1ccc(-c2ccc(C#Cc3cc(C#Cc4ccc(-c5ccc(CCCCC)cc5)cc4)c4ccc5c(C(=O)c6ccccc6)cc(C#Cc6ccc(-c7ccc(CCCCC)cc7)cc6)c6ccc3c4c65)cc2)cc1`
0.51

Output measured photoluminescence quantum yield for this item: `CCOC(=O)/N=c1/oc2cc(OC)cc(OC)c2cc1C#N`
0.059

Output measured photoluminescence quantum yield for this item: `CCN(CC)c1ccc2cc(-c3csc(N)c3C#N)c(=O)oc2c1`
0.6

Output measured photoluminescence quantum yield for this item: `CC1=C(c2ccc(N(C)C)cc2)C(C)=[N+]2C1=C(c1c(-c3ccccn3)nc3ccccn13)c1c(C)cc(C)n1[B-]2(F)F`
0.0041

Output measured photoluminescence quantum yield for this item: `C[Si]1(C)O[Si](C)(C)c2cc3c(-c4ccc(F)cc4)c4ccccc4nc3cc21`
0.39

Output measured photoluminescence quantum yield for this item: `[O-][n+]1c(/C=C/c2ccc3ccccc3c2)nc(N2CCOCC2)c2c1CCCC2`
0.05

Output measured photoluminescence quantum yield for this item: `O=[N+]([O-])c1ccc([N+]2=Cc3ccc4c5c(ccc4c3O[B-]2(c2c(F)c(F)c(F)c(F)c2F)c2c(F)c(F)c(F)c(F)c2F)C=[N+](c2ccc([N+](=O)[O-])cc2)[B-](c2c(F)c(F)c(F)c(F)c2F)(c2c(F)c(F)c(F)c(F)c2F)O5)cc1`
0.66
